In this section we review reported pIC50 values for a set of molecules.
Molecular target: hepatitis C virus RNA dependant polymerase (NS5B) (Hepatitis C virus genotype 1b)
Sequence (P26663 2420-3010): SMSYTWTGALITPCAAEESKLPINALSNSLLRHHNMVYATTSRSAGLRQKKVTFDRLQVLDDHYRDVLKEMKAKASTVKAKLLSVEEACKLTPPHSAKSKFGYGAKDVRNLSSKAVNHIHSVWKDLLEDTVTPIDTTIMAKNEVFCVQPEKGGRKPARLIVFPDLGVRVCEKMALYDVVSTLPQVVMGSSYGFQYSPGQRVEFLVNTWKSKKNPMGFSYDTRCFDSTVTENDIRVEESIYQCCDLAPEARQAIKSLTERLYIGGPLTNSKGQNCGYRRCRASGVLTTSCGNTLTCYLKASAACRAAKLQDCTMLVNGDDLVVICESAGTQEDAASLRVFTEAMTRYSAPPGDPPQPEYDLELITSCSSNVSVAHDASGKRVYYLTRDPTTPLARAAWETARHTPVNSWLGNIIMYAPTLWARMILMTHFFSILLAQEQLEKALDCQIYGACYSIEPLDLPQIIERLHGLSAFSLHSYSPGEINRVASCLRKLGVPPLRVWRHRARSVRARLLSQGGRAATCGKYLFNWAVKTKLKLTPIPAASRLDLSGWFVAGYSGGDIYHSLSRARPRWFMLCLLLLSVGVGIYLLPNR
Experiment: Inhibition of NS5B RNA dependent RNA polymerase activity
Type: biochemical
Conditions: Table 1; HCV NS5B polymerase
pIC50: −log10 of the molar value.

Previously resolved entries follow.
>>> val("CC(C)N(C(=O)Cn1c(-c2ccoc2)c(C2CCCCC2)c2ccc(C(=O)O)cc21)C(C)C")
"6.00 to 6.70"
>>> val("O=C(Cn1c(-c2ccc(Br)cn2)c(C2CCCCC2)c2ccc(C(=O)O)cc21)N[C@@H](Cc1ccc(O)cc1)C(=O)O")
"6.00 to 6.70"
>>> val("O=C(O)c1ccc2c(C3CCCCC3)c(-c3cccs3)n(CC(=O)N3CCOCC3)c2c1")
"> 6.70"
>>> val("CN(C)C(=O)Cn1c(-c2cccs2)c(C2CCCCC2)c2ccc(C(=O)O)cc21")
"> 6.70"
>>> val("CC(C)(NC(=O)Cn1c(-c2ccoc2)c(C2CCCCC2)c2ccc(C(=O)O)cc21)C(=O)Nc1ccc(/C=C/C(=O)O)cc1")
"> 6.70"
>>> val("O=C(Cn1c(-c2ccoc2)c(C2CCCCC2)c2ccc(C(=O)O)cc21)Nc1ccc(C(=O)O)cc1")
"6.00 to 6.70"

# pIC50 (molecule: CN(C)C(=O)Cn1c(-c2ccco2)c(C2CCCCC2)c2ccc(C(=O)O)cc21 ) is > 6.70
